biological target: histamine-H1 receptors (Cavia porcellus); construct: performed in guinea pig cerebellum membranes as described previously; from tissue; host or cells: guinea pig cerebellum membranes; assay: Histamine-H1 receptor binding assay ([3H]-mepyramine displacement); parameters: species or system guinea pig; settings: guinea pig cerebellum membranes, 0.7 nM [3H]-mepyramine, 30 min at 30° C.; read-out: Binding to receptor H1 (IC50)
Sequence (P31389 whole entry): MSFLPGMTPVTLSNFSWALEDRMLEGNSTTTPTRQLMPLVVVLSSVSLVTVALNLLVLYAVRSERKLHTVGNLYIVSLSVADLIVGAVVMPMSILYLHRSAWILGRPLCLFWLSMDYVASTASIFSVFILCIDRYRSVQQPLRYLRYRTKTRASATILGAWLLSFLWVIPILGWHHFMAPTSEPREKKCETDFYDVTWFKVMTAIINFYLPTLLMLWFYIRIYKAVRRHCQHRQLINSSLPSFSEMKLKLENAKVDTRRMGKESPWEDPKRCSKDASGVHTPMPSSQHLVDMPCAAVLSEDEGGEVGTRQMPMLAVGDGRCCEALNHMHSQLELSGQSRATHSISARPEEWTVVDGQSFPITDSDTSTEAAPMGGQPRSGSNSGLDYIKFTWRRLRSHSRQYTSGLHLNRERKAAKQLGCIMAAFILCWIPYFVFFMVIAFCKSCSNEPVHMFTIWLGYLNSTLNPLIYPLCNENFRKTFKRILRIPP
pIC50: −log10 of the molar value.
property: pIC50

INSERT INTO results (chemicalstructure, targetorsystem, result) VALUES
  ('O=C(O)c1ccccc1OCCN1CCC(c2cn(CCc3ccsc3)c3ccccc23)CC1', 'histamine-H1 receptors (Cavia porcellus)', 7.23),
  ('O=C(O)c1ccccc1OCCN1CCC(c2cn(Cc3ccncc3)c3ccccc23)CC1', 'histamine-H1 receptors (Cavia porcellus)', 6.57),
  ('COc1ccc(CN2CCC(c3cn(CCc4ccsc4)c4ccccc34)CC2)cc1C(=O)O', 'histamine-H1 receptors (Cavia porcellus)', 7.28);

A: O=C(O)c1cc(CN2CCC(c3cn(CCCOc4ccc5c(c4)OCO5)c4ccccc34)CC2)ccc1F
B: Cn1ccnc1SCCCn1cc(C2CCN(CCOc3ccccc3C(=O)O)CC2)c2ccccc21
Compare the recorded pIC50 of A and B ; state which is larger. Identify your selection by its label. A

Taken from patent US7189741B2.
